Where do these numbers come from? They come from PubChem BioAssay.

measuredOn: Beta-2 adrenergic receptor (Homo sapiens)
testSummary: agonist-induced loss of surface beta2AR – cell-based, FAP fluorogen, flow cytometry, validation set, pilot screen (AID 504459);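 further: agonist-driven loss of surface beta2AR via internalization measured by FAP dye flow cytometry; reference of the scale not given here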
testSettings: Am2.2-beta2AR cells, at 10 µM, active compounds read high
observationType: response (%)

compound=COc1cc2c(cc1OC)-c1cc(NC3CCCCCC3)nc(=O)n1CC2 observationtype=response measuredvalue=-1.14
compound=CC(C)NS(=O)(=O)c1ccc(OCC(=O)Nc2cccc(F)c2)cc1 observationtype=response measuredvalue=3.73
compound="CC1(C)C(C=C(Cl)Cl)C1C(=O)N1CCN(Cc2ccccc2)CC1 (centres undefined)" observationtype=response measuredvalue=-1.88
compound=COc1ccc2c(C=O)cn(C)c2c1 observationtype=response measuredvalue=-0.49
compound="O=C(Nc1ncc2c(n1)CC(c1ccco1)CC2=O)c1ccco1 (centres undefined)" observationtype=response measuredvalue=-16
compound=O=C1CC2(CCCC2)CC(=O)N1CCCCN1CCN(c2ncccn2)CC1 observationtype=response measuredvalue=-19.5
compound="CC(C)C12CN3CC(C(C)C)(CN(C1)C31C(=O)Nc3ccccc31)C2=O (centres undefined)" observationtype=response measuredvalue=9.28
compound=COc1cc(C(=O)NCCCCCC(=O)O)cc(OC)c1OC observationtype=response measuredvalue=11.2
compound="CC(C)CC(NC(=O)CNC(=O)C1O[C@@H]2OC(C)(C)O[C@@H]2[C@H]2OC(C)(C)O[C@@H]12)C(=O)O (some centres undefined)" observationtype=response measuredvalue=-1.33
compound=Cc1cc(O)c2/c(=N\N)c(-c3csc(C)n3)coc2c1 observationtype=response measuredvalue=2.22
compound=CC(C)(C)N(Cc1ccccc1)C(=O)c1ccc(Br)o1 observationtype=response measuredvalue=-22.8
compound=CCCCOn1c(C)c(C(C)=O)c2c3no[n+]([O-])c3ccc21 observationtype=response measuredvalue=25.4
compound="CCOC(=O)C1NN=C(C(=O)c2ccccc2)C1c1ccc(Cl)cc1 (centres undefined)" observationtype=response measuredvalue=3.04
compound=NC(N)=NC(N)=Nc1ccc2ccccc2c1 observationtype=response measuredvalue=18
compound=COc1cc2c(cc1OC)-c1nnc(C)n1C(C)(C)C2 observationtype=response measuredvalue=3.64
compound=Cc1occc(=O)c1O observationtype=response measuredvalue=-9.02
compound=COc1ccccc1/C=C/C(=O)c1c2c(c(C)[nH]c1=O)CCCC2 observationtype=response measuredvalue=-4.6
compound="CC(C)(C)NCC(O)COc1ccccc1C(=O)CCc1ccccc1 (centres undefined)" observationtype=response measuredvalue=-37.6
compound=O=C(CSCc1ccccc1)NCCCN1CCOCC1 observationtype=response measuredvalue=-1.38
compound=Cc1ccc(C(=O)COC(=O)c2cccc(N3C(=O)c4c(C)nc5ccccc5c4C3=O)c2)cc1C observationtype=response measuredvalue=-22.6
compound=O=C(Nc1ccc(C(=O)NC2CCCCC2)cc1)c1cccnc1 observationtype=response measuredvalue=-3.04
compound=CC(C)(C)N1NC2(CCCCC2)NC1=S observationtype=response measuredvalue=-12.5
compound=CC(C)N1C(=O)/C(=C\c2nc3ccccc3c(=O)[nH]2)c2ccccc21 observationtype=response measuredvalue=32.8
compound=Cn1cc(CN2CCN(CCO)CC2)c(-c2ccc(Oc3ccccc3)cc2)n1 observationtype=response measuredvalue=11.3
compound=CNC(=O)Oc1ccc2c(c1)[C@]1(C)CCN(C)[C@@H]1N2C observationtype=response measuredvalue=-21.5
compound=COc1ccc(Cc2noc(CN(C)CCN3CCc4ccccc4C3)n2)cc1OC observationtype=response measuredvalue=-6.59
compound=COC(=O)c1sccc1NC(=O)Nc1ccccc1F observationtype=response measuredvalue=2
compound=CC1CCN(CCOCCOc2ccccc2Br)CC1 observationtype=response measuredvalue=-4.72
compound=COc1ccc(OCc2cccc(C(=O)NN)c2)cc1 observationtype=response measuredvalue=11.1
compound=CC1(C)CC(=O)C(C2=NC(C)(C)Cc3ccccc32)=C(O)C1 observationtype=response measuredvalue=-9.99
compound=COC(=O)CCC(=O)CN observationtype=response measuredvalue=1.35
compound=Cc1cccc(NC(=O)c2cc3ccccc3o2)c1 observationtype=response measuredvalue=-1.7
compound=S=C(c1ccc2c(c1)OCO2)N1CCCCC1 observationtype=response measuredvalue=-5.76
compound="CN1CCCN=C1COC(=O)C(O)(c1ccccc1)C1CCCCC1 (centres undefined)" observationtype=response measuredvalue=3.5
compound="CC(C)C12CN3CC(C(C)C)(CN(C1)C3c1ccccc1)C2O (centres undefined)" observationtype=response measuredvalue=-12.3
compound=C[N+](C)(C)CCOP(=O)([O-])OC[C@H](O)CO observationtype=response measuredvalue=2.22
compound=Cc1ccc(S(=O)(=O)n2ccnc2)cc1C observationtype=response measuredvalue=-20.5
compound=CCOc1ccc2oc(-c3ccccc3)c(C(=O)O)c2c1 observationtype=response measuredvalue=-17.2
compound=CCn1c(SCC(=O)c2ccccc2)nc2ccccc2c1=O observationtype=response measuredvalue=0.7
